Some molecules, each annotated with its measured pest or weed control at 1 %.
Tested on: bed bugs, Cimex lectularius
Assay: Bed bug repellency bioassay, glass tube olfactometer arena
Type: in vivo
Settings: Cimex lectularius, observation period T2, gauze, 10 uL, 1% v/v in hexane, read-out: % Repellency T2 (average of 3 repetitions)
Just the number please, in %, no unit attached.

For orientation, consider the following solved cases.
| molecule | target entity | scale unit | pest or weed control at 1 % |
| --- | --- | --- | --- |
| C=CCOC(=O)CC [Compound 017, allyl propionate] | bed bugs, Cimex lectularius | % | 13 |
| CCCCCCC(=O)CC [Compound 028, 3-Nonanone] | bed bugs, Cimex lectularius | % | -11 |
| CCC(=O)/C=C/CO [Compound 006, (E)-6-hydroxyhex-4-en-3-one] | bed bugs, Cimex lectularius | % | -74 |

Consider the record given below.
## Task I'm curious: which pest or weed control at 1 % was measured for CCOC(=O)/C=C/C(=O)CC [Compound 068, (E)-ethyl 4-oxohex-2-enoate] tested on bed bugs, Cimex lectularius?
## Result 32
